B1: ZNF193 (parent)
chain: QCIECGKSFNRHCNLIRHQKIHTV

Variants of: B1
test: protein stability index of a GFP-peptide fusion (GPS, HEK-293T) (PSI 1-6); higher = more stable;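 note: lentivirally expressed fusions sorted by FACS into six bins by GFP to DsRed ratio, PSI derived from sequencing read proportions per bin multiplied by bin number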
assayConditions: c terminus: a fixed tail appended
parameterMeasured: protein stability index
Give the figure only, with no unit attached.

Returns the measured protein stability index for the input variant. Input: `H12F`
3.06

Returns the measured protein stability index for the input variant. Input: `C5D`
2.52

Returns the measured protein stability index for the input variant. Input: `C13D`
4.1

Returns the measured protein stability index for the input variant. Input: `H22G`
2.94

Returns the measured protein stability index for the input variant. Input: `I16F`
2.43

Returns the measured protein stability index for the input variant. Input: `C13L`
2.73

Returns the measured protein stability index for the input variant. Input: `Q1R`
4.1

Returns the measured protein stability index for the input variant. Input: `T23Q`
4.09

Returns the measured protein stability index for the input variant. Input: `C2S`
1.81

Returns the measured protein stability index for the input variant. Input: `R17P`
2.15

Returns the measured protein stability index for the input variant. Input: `T23W`
2.56

Returns the measured protein stability index for the input variant. Input: `R11G`
3.25

Returns the measured protein stability index for the input variant. Input: `R17S`
3.4

Returns the measured protein stability index for the input variant. Input: `V24C`
3.99

Returns the measured protein stability index for the input variant. Input: `R11P`
3.21

Returns the measured protein stability index for the input variant. Input: `C5M`
1.94

Returns the measured protein stability index for the input variant. Input: `H18W`
2.21

Returns the measured protein stability index for the input variant. Input: `G6P`
2.18

Returns the measured protein stability index for the input variant. Input: `S8E`
3.52

Returns the measured protein stability index for the input variant. Input: `G6Y`
2.17

Returns the measured protein stability index for the input variant. Input: `H22C`
4.83

Returns the measured protein stability index for the input variant. Input: `C13N`
3.2

Returns the measured protein stability index for the input variant. Input: `R17L`
2.9

Returns the measured protein stability index for the input variant. Input: `Q19F`
2.73

Returns the measured protein stability index for the input variant. Input: `E4K`
3.1

Returns the measured protein stability index for the input variant. Input: `G6A`
2.38

Returns the measured protein stability index for the input variant. Input: `L15S`
2.62

Returns the measured protein stability index for the input variant. Input: `K20L`
2.93

Returns the measured protein stability index for the input variant. Input: `H22S`
2.45

Returns the measured protein stability index for the input variant. Input: `T23D`
3.13

Returns the measured protein stability index for the input variant. Input: `L15N`
3.29

Returns the measured protein stability index for the input variant. Input: `C5Q`
2.6

Returns the measured protein stability index for the input variant. Input: `H22K`
2.41

Returns the measured protein stability index for the input variant. Input: `I3D`
3.4

Returns the measured protein stability index for the input variant. Input: `T23L`
2.7

Returns the measured protein stability index for the input variant. Input: `I16M`
3.1

Returns the measured protein stability index for the input variant. Input: `K20S`
3.3

Returns the measured protein stability index for the input variant. Input: `L15P`
2.39

Returns the measured protein stability index for the input variant. Input: `C5H`
1.98

Returns the measured protein stability index for the input variant. Input: `S8D`
3.4

Returns the measured protein stability index for the input variant. Input: `E4S`
2.75

Returns the measured protein stability index for the input variant. Input: `H22D`
2.08
